Hi there, I'd appreciate the recorded solubility kinetic for every entry that follows.
Condition Parameters: buffer; pH 7.4; 200.0 µM

Query block: Tell me solubility kinetic reported for `COc1ccc(Cl)cc1NS(=O)(=O)N1CCOCC1`
Result block: > 46 µg/mL

Query block: State its solubility kinetic for this compound: `Cc1ccsc1-c1nc(CN2C[C@@H](C)O[C@@H](C)C2)c(C)o1`
Result block: > 46 µg/mL

Query block: Tell me solubility kinetic reported for CC1CCN(C2(O)C(=O)Nc3ccc(Cl)cc32)CC1 (stereo unspecified)
Result block: > 42.1 µg/mL

Query block: Quickly give me recorded solubility kinetic for `CC/C(O)=C1\C(=O)CCCC1=NCCc1nc2ccccc2[nH]1`
Result block: > 46.7 µg/mL

Query block: Specify reported solubility kinetic for the compound shown: `O=C(NCCN1CCCCC1)Nc1cccc(Cl)c1Cl`
Result block: < 0.2 µg/mL

Query block: Consider the compound `CCOC(=O)c1c(N)c2cc([N+](=O)[O-])ccc2n1C` and give its recorded solubility kinetic.
Result block: < 0.2 µg/mL

----------
Condition Parameters: buffer; pH 7.4; 200.0 µM
Measured Attribute: solubility kinetic

Query block: Please look at this molecule and report its solubility kinetic: `NC(=NCc1ccco1)NC(=O)c1ccc(Cl)cc1`
Result block: > 41.7 µg/mL

Query block: Using the record for O=C(NCC(c1ccco1)N1CCOCC1)c1ccc(F)cc1 (stereo not drawn) , state its measured solubility kinetic.
Result block: > 47.8 µg/mL

Query block: Give the measured solubility kinetic for `CSc1ccccc1C(=O)N1CCc2ccccc2C1`
Result block: > 42.5 µg/mL

Query block: Quickly give me recorded solubility kinetic for CN(C)C(=O)CN1C(=O)NC2(CCc3ccccc32)C1=O (stereo not drawn)
Result block: > 43.1 µg/mL

Query block: // Input: `Cc1cccc(NC(=O)COC(=O)c2cc3ccccc3oc2=O)c1` . Output its solubility kinetic only.
Result block: < 0.7 µg/mL

Query block: Give me measured solubility kinetic, please, for this molecule: `O=C(NS(=O)(=O)c1ccc(Cl)s1)c1ccccc1`
Result block: > 45.3 µg/mL

Query block: Identify measured solubility kinetic associated with `Cc1nn(CC(=O)N2CCN(C(=O)c3ccco3)CC2)c(C)c1[N+](=O)[O-]`
Result block: > 54.2 µg/mL

Query block: Hello, please tell me recorded solubility kinetic for this one: `NC(=O)/C(=C/c1cccnc1)NC(=O)c1ccccc1`
Result block: > 40.1 µg/mL
